molecular target: MERTK (UniProt Q12866); test: phosphorylation enrichment, bacterial display (enrichment ratio); higher = better substrate or ligand; peptides without Tyr show the background;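 note: 11-residue human phosphosite peptides and single-mutation variants displayed on the E. coli surface, counted by deep sequencing, each peptide's frequency after selection divided by its frequency in the unselected input library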;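 note: frequency after pTyr selection over input frequency; kinase dosed for 20-30% of maximal phosphorylation in three min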
Sequence (Q12866 whole entry, looked up): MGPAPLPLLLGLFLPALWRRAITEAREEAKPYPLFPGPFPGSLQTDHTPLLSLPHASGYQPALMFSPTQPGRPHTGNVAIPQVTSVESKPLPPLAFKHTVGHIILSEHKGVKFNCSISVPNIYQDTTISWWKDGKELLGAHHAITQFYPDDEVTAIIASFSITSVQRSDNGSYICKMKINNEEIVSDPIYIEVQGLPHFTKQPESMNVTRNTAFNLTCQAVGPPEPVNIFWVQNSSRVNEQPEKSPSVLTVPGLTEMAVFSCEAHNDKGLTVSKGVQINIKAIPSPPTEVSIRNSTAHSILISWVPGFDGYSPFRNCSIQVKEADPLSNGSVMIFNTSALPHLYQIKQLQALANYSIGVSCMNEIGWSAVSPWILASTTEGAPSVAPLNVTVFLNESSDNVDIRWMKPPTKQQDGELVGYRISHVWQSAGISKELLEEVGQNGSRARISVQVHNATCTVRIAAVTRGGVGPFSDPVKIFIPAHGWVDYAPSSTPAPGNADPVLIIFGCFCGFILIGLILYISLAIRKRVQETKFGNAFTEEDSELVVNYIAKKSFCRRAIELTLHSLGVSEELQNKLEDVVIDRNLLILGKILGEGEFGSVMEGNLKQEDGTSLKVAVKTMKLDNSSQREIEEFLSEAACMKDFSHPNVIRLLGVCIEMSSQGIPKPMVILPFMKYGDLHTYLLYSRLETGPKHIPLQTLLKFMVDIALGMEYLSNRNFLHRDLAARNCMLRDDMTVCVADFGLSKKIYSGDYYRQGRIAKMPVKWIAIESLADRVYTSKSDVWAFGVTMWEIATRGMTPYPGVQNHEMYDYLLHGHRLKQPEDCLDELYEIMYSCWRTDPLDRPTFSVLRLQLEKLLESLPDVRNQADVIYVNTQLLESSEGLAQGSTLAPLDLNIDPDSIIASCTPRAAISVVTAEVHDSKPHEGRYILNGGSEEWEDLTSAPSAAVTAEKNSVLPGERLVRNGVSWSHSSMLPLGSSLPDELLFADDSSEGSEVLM
Reported Endpoint: phosphorylation enrichment
// keep it numeric: no unit symbol after the value

RLGLQYSQGLV [EIF2B4_Y214]: 0.365
KVGNGYISAAE [CALM2_Y100_D96V]: 0.42

(Q) Could you share what phosphorylation enrichment was measured for FRDALYKFMVD [PHEX_Y250_YF] , tested on MERTK (UniProt Q12866)?
(A) 0.763

(Q) Could you share what phosphorylation enrichment was measured for SIKDKYVMALY [KCNH2_Y611_T613M] , tested on MERTK (UniProt Q12866)?
(A) 0.441
